Measured Target: hGcgR (Homo sapiens, UniProt P47871)
Sequence (P47871 26-477): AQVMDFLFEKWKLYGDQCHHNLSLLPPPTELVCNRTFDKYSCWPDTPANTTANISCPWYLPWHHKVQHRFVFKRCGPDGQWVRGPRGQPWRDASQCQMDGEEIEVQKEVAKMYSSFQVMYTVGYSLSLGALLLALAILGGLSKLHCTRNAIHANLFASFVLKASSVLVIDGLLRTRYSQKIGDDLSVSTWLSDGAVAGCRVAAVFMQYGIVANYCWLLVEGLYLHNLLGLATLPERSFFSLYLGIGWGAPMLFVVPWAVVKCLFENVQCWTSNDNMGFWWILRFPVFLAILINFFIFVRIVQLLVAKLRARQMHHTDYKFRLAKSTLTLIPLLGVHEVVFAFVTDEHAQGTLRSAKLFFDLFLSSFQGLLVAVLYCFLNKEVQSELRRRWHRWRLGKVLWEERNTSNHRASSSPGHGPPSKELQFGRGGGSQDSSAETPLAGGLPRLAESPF
Method Description: Functional cAMP activation in the presence of 0.1% casein (no HSA);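 note: intracellular cAMP rise after 30 min at 37 °C, read by HTRF against a cAMP standard curve, scaled from buffer only (0%) to maximal control ligand response (100%)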
Format: cell-based
Measurement Context: in the presence of 0.1% casein (no HSA); geometric mean; read-out: Relative cAMP EC50, hGcgR
Starred links: 1 amine or outer side, 2 acyl side, 3 side chain; linkers in the order of their positions; H or OH if unused. Non-standard residues stand in square brackets, D forms with d. Groups on a side chain read outwards from the residue. No end group written: not given here. *: point of attachment. C18 diacid = O=C(O)CCCCCCCCCCCCCCCCC(=O)*; γGlu = O=C(O)[C@H](CCC(=O)[*:2])N[*:1]; αMe4Pal = C[C@](N)(Cc1ccncc1)C(=O)O; αMeY = C[C@](N)(Cc1ccc(O)cc1)C(=O)O; 4Pal = N[C@@H](Cc1ccncc1)C(=O)O; αMeL = CC(C)C[C@](C)(N)C(=O)O; Orn = NCCC[C@H](N)C(=O)O; AEEA = NCCOCCOCC(=O)O; Aib = CC(C)(N)C(=O)O

Substance: H-Y[Aib]QGTFTSD[4Pal]SQ[αMeL]LDKK([AEEA-γGlu-C18 diacid])AQ[αMe4Pal]AFIEYLIE[Aib]GPSSGAPPPSGSEE-NH2 [Example 897]
EC50: 3.62 nM

Substance: H-Y[Aib]QGTFTSD[4Pal]SQ[αMeL]LDKK([AEEA-γGlu-C18 diacid])AQ[αMe4Pal]AFIEYLIE[Aib]GPSSGAPPPSGSGE [Example 889]
EC50: 4.09 nM

Substance: Y[Aib]QGTFTSD[4Pal]SQ[αMeL]LD[Orn]K([dE-γGlu-C18 diacid])AQ[αMe4Pal]QFIE[αMeY]LIAGGPSSGAPPPSGSEEE-NH2 [Example 1081]
EC50: 19.7 nM
